Target: T1, human TL1A extracellular domain with N-terminal HIS and FLAG tag (human, UniProt O95150 72-251)
T1 construct: whole entry named. ~70 kDa fraction purified by gel filtration
T1 sequence: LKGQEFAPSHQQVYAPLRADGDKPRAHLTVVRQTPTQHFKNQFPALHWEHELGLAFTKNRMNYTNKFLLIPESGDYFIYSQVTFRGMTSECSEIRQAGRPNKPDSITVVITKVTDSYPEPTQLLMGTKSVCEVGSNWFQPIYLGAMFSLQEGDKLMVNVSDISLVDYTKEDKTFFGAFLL
Assay: SPR run 3; supernatant on Protein A; TL1A 10 ug/mL; timepoint 59
Quick list: TL1A Binding Level (Early) per entry.
result type: TL1A Binding Level (Early)

>  <binder>
320-275 (antibody, human IgG1, name in Kabat numbering, V domains shown, human IgG1, lambda) VH: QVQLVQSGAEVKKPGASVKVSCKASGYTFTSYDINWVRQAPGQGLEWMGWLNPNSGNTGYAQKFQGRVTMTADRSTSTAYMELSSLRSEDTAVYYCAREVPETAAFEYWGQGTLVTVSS VL: QSVLTQPPSVSGAPGQRVTISCTSSSSDIGAYLGVHWYQQLPGTAPKLLIEGYYNRPSGVPDRFSGSKSGTSASLTITGLLPEDEGDYYCQSYDGTLSALFGGGTKLTVLG

>  <result type>
TL1A Binding Level (Early)

>  <reading>
44 RU

$$$$
>  <binder>
320-256 (antibody, human IgG1, name in Kabat numbering, V domains shown, human IgG1, lambda) VH: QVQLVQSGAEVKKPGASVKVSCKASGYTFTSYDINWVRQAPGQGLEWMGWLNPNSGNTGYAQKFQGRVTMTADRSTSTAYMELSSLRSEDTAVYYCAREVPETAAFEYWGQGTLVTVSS VL: QSVLTQPPSVSGAPGQRVTISCTSSSSDILAGLGVHWYQQLPGTAPKLLIEGYYNRPSGVPDRFSGSKSGTSASLTITGLLPEDEGDYYCQSYDGTLSALFGGGTKLTVLG

>  <result type>
TL1A Binding Level (Early)

>  <reading>
30 RU

$$$$
>  <binder>
320-259 (antibody, human IgG1, name in Kabat numbering, V domains shown, human IgG1, lambda) VH: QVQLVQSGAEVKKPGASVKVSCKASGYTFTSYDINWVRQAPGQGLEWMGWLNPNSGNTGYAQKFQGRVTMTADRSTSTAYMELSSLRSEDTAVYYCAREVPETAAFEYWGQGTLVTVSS VL: QSVLTQPPSVSGAPGQRVTISCTSSSSDIGSGLGVHWYQQLPGTAPKLLIEGYYNRPSGVPDRFSGSKSGTSASLTITGLLPEDEGDYYCQSYDGTLSALFGGGTKLTVLG

>  <result type>
TL1A Binding Level (Early)

>  <reading>
194 RU

$$$$
>  <binder>
320-293 (antibody, human IgG1, name in Kabat numbering, V domains shown, human IgG1, lambda) VH: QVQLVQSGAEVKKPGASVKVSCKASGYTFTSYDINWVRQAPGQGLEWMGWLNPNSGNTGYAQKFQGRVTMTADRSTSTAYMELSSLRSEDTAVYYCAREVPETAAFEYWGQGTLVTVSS VL: QSVLTQPPSVSGAPGQRVTISCTSSSSDIGAGLGAHWYQQLPGTAPKLLIEGYYNRPSGVPDRFSGSKSGTSASLTITGLLPEDEGDYYCQSYDGTLSALFGGGTKLTVLG

>  <result type>
TL1A Binding Level (Early)

>  <reading>
104 RU

$$$$
>  <binder>
320-277 (antibody, human IgG1, V domains shown, human IgG1, lambda) VH: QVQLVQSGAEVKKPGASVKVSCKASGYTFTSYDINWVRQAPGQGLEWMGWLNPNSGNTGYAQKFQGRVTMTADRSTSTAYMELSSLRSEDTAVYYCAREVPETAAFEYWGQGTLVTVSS VL: QSVLTQPPSVSGAPGQRVTISCTSSSSDIGAGSGVHWYQQLPGTAPKLLIEGYYNRPSGVPDRFSGSKSGTSASLTITGLLPEDEGDYYCQSYDGTLSALFGGGTKLTVLG

>  <result type>
TL1A Binding Level (Early)

>  <reading>
387 RU

$$$$
>  <binder>
320-271 (antibody, human IgG1, name in Kabat numbering, V domains shown, human IgG1, lambda) VH: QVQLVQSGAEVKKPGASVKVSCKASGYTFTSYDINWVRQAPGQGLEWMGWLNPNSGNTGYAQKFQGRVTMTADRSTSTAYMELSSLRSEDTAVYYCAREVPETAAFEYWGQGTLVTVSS VL: QSVLTQPPSVSGAPGQRVTISCTSSSSDIGAHLGVHWYQQLPGTAPKLLIEGYYNRPSGVPDRFSGSKSGTSASLTITGLLPEDEGDYYCQSYDGTLSALFGGGTKLTVLG

>  <result type>
TL1A Binding Level (Early)

>  <reading>
106 RU

$$$$
>  <binder>
320-278 (antibody, human IgG1, V domains shown, human IgG1, lambda) VH: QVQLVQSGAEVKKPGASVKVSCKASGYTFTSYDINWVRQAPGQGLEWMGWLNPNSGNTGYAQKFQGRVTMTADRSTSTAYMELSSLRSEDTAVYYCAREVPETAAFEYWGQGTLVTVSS VL: QSVLTQPPSVSGAPGQRVTISCTSSSSDIGAGQGVHWYQQLPGTAPKLLIEGYYNRPSGVPDRFSGSKSGTSASLTITGLLPEDEGDYYCQSYDGTLSALFGGGTKLTVLG

>  <result type>
TL1A Binding Level (Early)

>  <reading>
389 RU

$$$$
